IC50 values for the compounds below.
Target: human TRPA1 (Homo sapiens)
Construct: expressed in transfected cells; host or cells: CHO cells
Assay: TRPA1 FLIPR Tetra calcium influx assay in CHO cells (block of cinnamaldehyde-induced calcium influx)
Assay type: cell-based
Details: Table 2; CHO cells expressing TRPA1; agonist cinnamaldehyde 75 uM; 20 min compound incubation; Hill coefficient fixed to 1.5; read-out: hTRPA1 CHO Ca2+ AUC EVO (IC50)
READOUT NAME: IC50

[[record]]
compound = "C[C@H]1[C@H](F)C[C@@H](C(=O)NCc2cc(-c3cnc(C(F)(F)F)nc3)ncc2C#N)N1S(=O)(=O)c1ccc(F)cc1"
reported_value = "15.5 nM"

[[record]]
compound = "C[C@H]1[C@H](F)C[C@@H](C(=O)NCc2cc(-c3cnc(C(F)(F)F)nc3)ncc2F)N1S(=O)(=O)c1ccc(Cl)c(Cl)c1 (stereo in doubt)"
reported_value = "8.69 nM"

[[record]]
compound = "C[C@H]1[C@H](F)C[C@@H](C(=O)NCc2cc(-c3cnc(C(F)(F)F)cn3)ncc2C(F)(F)F)N1S(=O)(=O)c1ccc(F)cc1"
reported_value = "1.94 nM"

[[record]]
compound = "C[C@H]1[C@H](F)C[C@@H](C(=O)NCc2cc(-c3cnc(C(F)(F)F)nc3)ncc2C(F)(F)F)N1S(=O)(=O)c1cncc(F)c1"
reported_value = "2.31 nM"


====

Target: human TRPA1 (Homo sapiens, UniProt O75762)
Construct: expressed in transfected cells; host or cells: CHO cells
Sequence (O75762 whole entry): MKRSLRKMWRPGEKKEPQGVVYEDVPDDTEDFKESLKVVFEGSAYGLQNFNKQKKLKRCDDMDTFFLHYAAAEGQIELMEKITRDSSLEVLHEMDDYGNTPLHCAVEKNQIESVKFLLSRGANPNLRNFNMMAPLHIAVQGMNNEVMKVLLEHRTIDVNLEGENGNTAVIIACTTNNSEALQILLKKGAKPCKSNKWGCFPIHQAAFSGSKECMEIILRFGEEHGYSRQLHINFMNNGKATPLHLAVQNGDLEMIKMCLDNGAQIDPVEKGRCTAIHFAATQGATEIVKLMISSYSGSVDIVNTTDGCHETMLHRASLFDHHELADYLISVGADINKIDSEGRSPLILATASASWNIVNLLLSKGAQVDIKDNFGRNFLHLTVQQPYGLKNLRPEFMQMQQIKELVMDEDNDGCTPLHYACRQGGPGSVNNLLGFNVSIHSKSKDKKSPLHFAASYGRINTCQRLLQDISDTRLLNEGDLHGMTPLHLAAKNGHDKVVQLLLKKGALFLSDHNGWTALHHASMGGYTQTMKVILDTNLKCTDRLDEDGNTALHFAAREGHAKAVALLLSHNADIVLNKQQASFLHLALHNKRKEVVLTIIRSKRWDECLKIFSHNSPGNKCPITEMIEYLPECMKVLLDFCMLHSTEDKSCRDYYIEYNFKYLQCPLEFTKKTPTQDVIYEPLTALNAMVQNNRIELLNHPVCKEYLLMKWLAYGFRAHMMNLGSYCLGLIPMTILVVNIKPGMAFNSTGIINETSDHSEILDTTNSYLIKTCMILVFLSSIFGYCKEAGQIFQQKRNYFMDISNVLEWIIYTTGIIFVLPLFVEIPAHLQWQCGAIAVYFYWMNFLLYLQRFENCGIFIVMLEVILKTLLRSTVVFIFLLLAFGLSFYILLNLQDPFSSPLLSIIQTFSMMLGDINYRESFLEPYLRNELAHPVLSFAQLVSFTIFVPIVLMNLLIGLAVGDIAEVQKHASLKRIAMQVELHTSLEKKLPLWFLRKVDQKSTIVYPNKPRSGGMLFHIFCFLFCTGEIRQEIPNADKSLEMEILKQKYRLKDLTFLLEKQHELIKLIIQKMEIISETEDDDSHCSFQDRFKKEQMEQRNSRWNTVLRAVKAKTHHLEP
Test: TRPA1 FLIPR Tetra calcium influx assay in CHO cells (block of cinnamaldehyde-induced calcium influx)
Assay type: cell-based
Conditions: Table 2; CHO cells expressing TRPA1; agonist cinnamaldehyde 75 uM; 20 min compound incubation; Hill coefficient fixed to 1.5; read-out: hTRPA1 CHO Ca2+ AUC EVO (IC50)
pIC50: −log10 of the molar value.
READOUT NAME: pIC50

[[record]]
mol = "C[C@H]1[C@H](F)C[C@@H](C(=O)NCc2cc(-c3ccc(C(F)(F)F)nc3)ncn2)N1S(=O)(=O)c1ccc(F)cc1"
readout_name = "pIC50"
reported_value = 7.07

[[record]]
mol = "C[C@@]1(F)C[C@@H](C(=O)NCc2cc(Cl)nc(-c3cnc(C(F)(F)F)nc3)c2)N(S(=O)(=O)c2ccc(F)cc2)C1"
readout_name = "pIC50"
reported_value = 7.18

[[record]]
mol = "C[C@H]1[C@H](F)C[C@@H](C(=O)NCc2cc(-c3cnc(C(F)(F)F)s3)ncn2)N1S(=O)(=O)c1ccc(F)cc1"
readout_name = "pIC50"
reported_value = 7.17


====

Target: human TRPA1 (Homo sapiens, UniProt O75762)
Construct: expressed in transfected cells; host or cells: CHO cells
Assay: TRPA1 FLIPR Tetra calcium influx assay in CHO cells (block of cinnamaldehyde-induced calcium influx)
Assay type: cell-based
Conditions: Table 2; CHO cells expressing TRPA1; agonist cinnamaldehyde 75 uM; 20 min compound incubation; Hill coefficient fixed to 1.5; read-out: hTRPA1 CHO Ca2+ AUC EVO (IC50)
Method: IC50s (effective concentration) of compounds on the human and rat TRPA1 channels were determined using a FLIPR Tetra instrument. CHO cells expressing TRPA1 were plated into 384-well plates, incubated overnight at 37 C, and loaded with BD calcium indicator dye for 1 hr at 37° C. followed by 15 minutes at room temperature. The assay buffer was Hank's Balanced Salt Solution (HBSS) containing 20 mM HEPES (pH readjusted to 7.4) along with 0.02% BSA. […]
READOUT NAME: IC50

[[record]]
compound = "C[C@H]1[C@H](F)C[C@@H](C(=O)NCc2cc(-c3cnc(C(F)(F)F)s3)ncc2C#N)N1S(=O)(=O)c1ccc(F)cc1 [Example 129]"
reported_value = "0.00414 µM"

[[record]]
compound = "O=C(NCc1cc(-c2cnc(C(F)(F)F)nc2)ncn1)[C@H]1CC[C@@H](C(F)(F)F)N1S(=O)(=O)c1ccc(F)cc1 [Example 22]"
reported_value = "3.61 µM"

[[record]]
compound = "C[C@H]1[C@H](F)C[C@@H](C(=O)NCc2ccnc(-c3cnc(C(F)(F)F)nc3)c2)N1S(=O)(=O)c1ccc(F)cc1 [Example 38]"
reported_value = "0.0694 µM"


====

pIC50 values for the compounds below.
Target: human TRPA1 (Homo sapiens, UniProt O75762)
Construct: expressed in transfected cells; host or cells: CHO cells
Assay: TRPA1 FLIPR Tetra calcium influx assay in CHO cells (block of cinnamaldehyde-induced calcium influx)
Assay type: cell-based
Conditions: Table 2; CHO cells expressing TRPA1; agonist cinnamaldehyde 75 uM; 20 min compound incubation; Hill coefficient fixed to 1.5; read-out: hTRPA1 CHO Ca2+ AUC EVO (IC50)
pIC50: −log10 of the molar value.
READOUT NAME: pIC50

[[record]]
compound = "C[C@H]1[C@H](F)C[C@@H](C(=O)NCc2cc(-c3cnc(C(F)(F)F)nc3)ncc2OCC(F)(F)F)N1S(=O)(=O)c1ccc(F)cc1"
target_system = "human TRPA1 (Homo sapiens, UniProt O75762)"
readout_name = "pIC50"
reported_value = 8.26

[[record]]
compound = "C[C@H]1[C@H](F)C[C@@H](C(=O)NCc2cc([C@H]3CC[C@@H](C(F)(F)F)CC3)ncc2F)N1S(=O)(=O)c1ccc(F)cc1"
target_system = "human TRPA1 (Homo sapiens, UniProt O75762)"
readout_name = "pIC50"
reported_value = 8.20

[[record]]
compound = "C[C@H]1CC[C@@H](C(=O)NCc2cc(Cl)nc(-c3cnc(C(F)(F)F)nc3)c2)N1S(=O)(=O)c1ccc(F)cc1"
target_system = "human TRPA1 (Homo sapiens, UniProt O75762)"
readout_name = "pIC50"
reported_value = 8.95

[[record]]
compound = "C[C@H]1[C@H](F)C[C@@H](C(=O)NCc2cc(-c3cnc(C(F)(F)F)cn3)ncn2)N1S(=O)(=O)c1ccc(F)cc1"
target_system = "human TRPA1 (Homo sapiens, UniProt O75762)"
readout_name = "pIC50"
reported_value = 6.74

[[record]]
compound = "C[C@H]1[C@H](F)C[C@@H](C(=O)NCc2cc(-c3cnc(C(F)(F)F)nc3)cc(C3CC3)n2)N1S(=O)(=O)c1ccc(F)cc1"
target_system = "human TRPA1 (Homo sapiens, UniProt O75762)"
readout_name = "pIC50"
reported_value = 8.42

[[record]]
compound = "C[C@H]1[C@H](F)C[C@@H](C(=O)NCc2cc(-c3cnc(C(F)(F)F)nc3)ccc2F)N1S(=O)(=O)c1ccc(F)cc1 [Example 14]"
target_system = "human TRPA1 (Homo sapiens, UniProt O75762)"
readout_name = "pIC50"
reported_value = 8.67

[[record]]
compound = "C[C@H]1[C@H](F)C[C@@H](C(=O)NCc2ccc(F)c(-c3cnc(C(F)(F)F)nc3)c2)N1S(=O)(=O)c1ccc(F)cc1 [Example 5]"
target_system = "human TRPA1 (Homo sapiens, UniProt O75762)"
readout_name = "pIC50"
reported_value = 8.42

[[record]]
compound = "COc1cnc(CNC(=O)[C@@H]2C[C@@H](F)[C@H](C)N2S(=O)(=O)c2ccc(F)cc2)cc1-c1cnc(C(F)(F)F)nc1"
target_system = "human TRPA1 (Homo sapiens, UniProt O75762)"
readout_name = "pIC50"
reported_value = 7.27

[[record]]
compound = "C[C@H]1[C@H](F)C[C@@H](C(=O)NCc2cn(-c3cnc(C(F)(F)F)nc3)nc2C(F)(F)F)N1S(=O)(=O)c1ccc(F)cc1"
target_system = "human TRPA1 (Homo sapiens, UniProt O75762)"
readout_name = "pIC50"
reported_value = 7.58

[[record]]
compound = "COC[C@H]1CC[C@@H](C(=O)NCc2cc(-c3cnc(C(F)(F)F)nc3)ncc2F)N1S(=O)(=O)c1ccc(F)cc1"
target_system = "human TRPA1 (Homo sapiens, UniProt O75762)"
readout_name = "pIC50"
reported_value = 7.01

[[record]]
compound = "CC1(C)[C@@H]2[C@@H](C(=O)NCc3cc(-c4cnc(C(F)(F)F)nc4)ncc3F)N(S(=O)(=O)c3ccc(F)cc3)C[C@@H]21"
target_system = "human TRPA1 (Homo sapiens, UniProt O75762)"
readout_name = "pIC50"
reported_value = 7.83

[[record]]
compound = "C[C@H]1[C@H](F)C[C@@H](C(=O)NCc2cc(-c3cnc(C(F)(F)F)nc3)c(Cl)cn2)N1S(=O)(=O)c1ccc(F)cc1"
target_system = "human TRPA1 (Homo sapiens, UniProt O75762)"
readout_name = "pIC50"
reported_value = 7.98

[[record]]
compound = "O=C(NCc1cc(-c2cnc(C(F)(F)F)nc2)ncc1F)[C@@H]1[C@H]2C[C@H]2CN1S(=O)(=O)c1ccc(F)cc1 (single isomer, unassigned)"
target_system = "human TRPA1 (Homo sapiens, UniProt O75762)"
readout_name = "pIC50"
reported_value = 7.84

[[record]]
compound = "C[C@H]1[C@H](F)C[C@@H](C(=O)NCc2cc(-c3cnc(C(F)(F)F)nc3)ncc2F)N1S(=O)(=O)c1ccc(F)c(F)c1"
target_system = "human TRPA1 (Homo sapiens, UniProt O75762)"
readout_name = "pIC50"
reported_value = 8.16

[[record]]
compound = "O=C(NCc1cc(-c2cnc(C(F)(F)F)nc2)ncc1F)[C@@H]1C[C@@H]2C[C@@H]2N1S(=O)(=O)c1ccc(F)cc1"
target_system = "human TRPA1 (Homo sapiens, UniProt O75762)"
readout_name = "pIC50"
reported_value = 9.22

[[record]]
compound = "C[C@H]1[C@H](F)C[C@@H](C(=O)NCc2cc(-c3cnc(C(F)(F)F)nc3)ncc2Cl)N1S(=O)(=O)c1ccc(F)cc1"
target_system = "human TRPA1 (Homo sapiens, UniProt O75762)"
readout_name = "pIC50"
reported_value = 8.53

[[record]]
compound = "C[C@H]1[C@H](F)C[C@@H](C(=O)NCc2cc(-c3cnc(C(F)(F)F)nc3)ccc2F)N1S(=O)(=O)c1ccc(F)cc1 [Example 44]"
target_system = "human TRPA1 (Homo sapiens, UniProt O75762)"
readout_name = "pIC50"
reported_value = 8.13

[[record]]
compound = "C[C@H]1[C@H](F)C[C@@H](C(=O)NCc2cc(-c3cnc(C(F)(F)F)nc3)c(C(F)F)cn2)N1S(=O)(=O)c1ccc(F)cc1"
target_system = "human TRPA1 (Homo sapiens, UniProt O75762)"
readout_name = "pIC50"
reported_value = 7.52

[[record]]
compound = "O=C(NCc1cc(-c2cnc(C(F)(F)F)nc2)ncc1F)[C@@H]1[C@@H]2[C@H](CN1S(=O)(=O)c1ccc(F)cc1)C2(F)F"
target_system = "human TRPA1 (Homo sapiens, UniProt O75762)"
readout_name = "pIC50"
reported_value = 7.34

[[record]]
compound = "C[C@H]1[C@H](F)C[C@@H](C(=O)NCc2nc(-c3cnc(C(F)(F)F)nc3)ncc2C(F)(F)F)N1S(=O)(=O)c1ccc(F)cc1"
target_system = "human TRPA1 (Homo sapiens, UniProt O75762)"
readout_name = "pIC50"
reported_value = 7.71

[[record]]
compound = "C[C@H]1[C@H](F)C[C@@H](C(=O)NCc2cc([C@H]3CC[C@H](C(F)(F)F)CC3)c(F)cn2)N1S(=O)(=O)c1ccc(F)cc1"
target_system = "human TRPA1 (Homo sapiens, UniProt O75762)"
readout_name = "pIC50"
reported_value = 7.19

[[record]]
compound = "C[C@H]1[C@H](F)C[C@@H](C(=O)NCc2cc(-c3cnc(C(F)(F)F)nc3)ncc2OC(F)F)N1S(=O)(=O)c1ccc(F)cc1"
target_system = "human TRPA1 (Homo sapiens, UniProt O75762)"
readout_name = "pIC50"
reported_value = 7.71

[[record]]
compound = "COc1nn(-c2cnc(C(F)(F)F)nc2)cc1CNC(=O)[C@@H]1C[C@@H](F)[C@H](C)N1S(=O)(=O)c1cc2cc(F)ccc2o1"
target_system = "human TRPA1 (Homo sapiens, UniProt O75762)"
readout_name = "pIC50"
reported_value = 8.96

[[record]]
compound = "C[C@H]1[C@H](F)C[C@@H](C(=O)NCc2cn(-c3cnc(C(F)(F)F)nc3)nc2C(F)F)N1S(=O)(=O)c1ccc(F)cc1 [Example 40]"
target_system = "human TRPA1 (Homo sapiens, UniProt O75762)"
readout_name = "pIC50"
reported_value = 7.37


This collection of values is drawn from patent US10179782B2.
